Reported activity (%) at 10 μM by item:
Target: human M1 receptor (hCHRM1) (Homo sapiens, UniProt P11229)
Construct: expressed in transfected cells
Sequence (P11229 whole entry): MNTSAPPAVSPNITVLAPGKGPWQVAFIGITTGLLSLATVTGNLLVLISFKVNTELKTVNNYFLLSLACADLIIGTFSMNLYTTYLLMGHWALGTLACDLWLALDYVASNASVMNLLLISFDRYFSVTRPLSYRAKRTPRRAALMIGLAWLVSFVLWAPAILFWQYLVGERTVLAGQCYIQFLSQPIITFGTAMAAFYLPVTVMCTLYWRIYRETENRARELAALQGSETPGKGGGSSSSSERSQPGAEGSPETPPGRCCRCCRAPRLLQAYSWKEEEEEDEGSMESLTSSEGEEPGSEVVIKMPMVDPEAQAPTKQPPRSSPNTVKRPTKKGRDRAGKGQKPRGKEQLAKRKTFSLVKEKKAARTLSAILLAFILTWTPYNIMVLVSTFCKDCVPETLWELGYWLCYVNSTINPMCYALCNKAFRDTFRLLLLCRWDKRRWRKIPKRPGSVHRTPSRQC
Assay: Measurement of M1 receptor positive allosteric modulator (M1PAM) activity, calcium fluorescence in CHO-K1 cells
Format: cell-based
Conditions: 10 μM test compound with acetylcholine at EC20; 100% = acetylcholine 1 μM, 0% = DMSO
readout: activity (%) at 10 μM

| mol | experimental.system | readout | result |
| --- | --- | --- | --- |
| CCC(F)(F)COc1nccc2c1C(=O)N(Cc1ccc(-c3cnn(C(F)F)c3)cc1)C2 | human M1 receptor (hCHRM1) (Homo sapiens, UniProt P11229) | activity (%) at 10 μM | 91% |
| Cc1nn(C)cc1-c1ccc(CN2Cc3ccnc(OCC(F)F)c3C2=O)c(F)c1 | human M1 receptor (hCHRM1) (Homo sapiens, UniProt P11229) | activity (%) at 10 μM | 101% |
| O=C1c2c(ccnc2OCC(F)F)CN1Cc1ccc(-c2cnn(CC(F)F)c2)cc1F | human M1 receptor (hCHRM1) (Homo sapiens, UniProt P11229) | activity (%) at 10 μM | 102% |
| Cc1nn(C)cc1-c1ccc(CN2Cc3ncnc(OCC(C)(F)F)c3C2=O)c(F)c1 | human M1 receptor (hCHRM1) (Homo sapiens, UniProt P11229) | activity (%) at 10 μM | 94% |

Origin of the recorded values: patent US10208046B2
